Tested on: SNU-C4 xenografted nude mice
experiment: Biodistribution study in SNU-C4 xenografted nude mice after intravenous injection
Format: in vivo, mouse
experimental_context: liver, 2 hr after intravenous injection
In this section we review reported % ID/g Liver values for a set of compounds.
result_type: % ID/g Liver (% ID/g)

compound	tested_target	assay_value
O=C([O-])CN1CCN(CC(=O)[O-])CCN(CC(=O)[O-])CC1.[68Ga+3] [^68Ga-NOTA, reference compound]	SNU-C4 xenografted nude mice	1.21
N[C@@H](CN1CCN(CC(=O)[O-])CCN(CC(=O)[O-])CCN(CC(=O)[O-])CC1)C(=O)O.[68Ga+3] (stereo in doubt) [^68Ga-DO3A-ala]	SNU-C4 xenografted nude mice	2.52
O=C([O-])CN1CCNCCN(CC(=O)[O-])CCN(CC(=O)[O-])CC1.[68Ga+3] [^68Ga-DO3A, reference compound]	SNU-C4 xenografted nude mice	0.93
O=C([O-])CN1CCNCCN(CC(=O)[O-])CCNCC1.[68Ga+3] [^68Ga-DO2A, reference compound]	SNU-C4 xenografted nude mice	2.17
NC(CN1CCN(CC(=O)[O-])CCNCCN(CC(=O)[O-])CC1)C(=O)[O-].[68Ga+3] (centres unmarked) [^68Ga-DO2A-ala]	SNU-C4 xenografted nude mice	0.99
O=C([O-])CN1CCN(CC(=O)[O-])CCN(CC(=O)O)CCN(CC(=O)[O-])CC1.[68Ga+3] [^68Ga-DOTA, reference compound]	SNU-C4 xenografted nude mice	0.21
NC(CNC(=O)CN1CCN(CC(=O)[O-])CCN(CC(=O)[O-])CC1)C(=O)[O-].[68Ga+3] (centres unmarked) [^68Ga-NOTA-ala]	SNU-C4 xenografted nude mice	0.84
NC(CNC(=O)CN1CCN(CC(=O)[O-])CCN(CC(=O)[O-])CCN(CC(=O)[O-])CC1)C(=O)O.[68Ga+3] (centres unmarked) [^68Ga-DOTA-ala]	SNU-C4 xenografted nude mice	0.39

* * *

Test system: SNU-C4 xenografted nude mice
experiment: Biodistribution study in SNU-C4 xenografted nude mice after intravenous injection
Assay type: in vivo, mouse
experimental_context: blood, 30 min after intravenous injection
Hi! Could you tag entries with % ID/g Blood below 4 % ID/g as label 1, and those at or above as label 0? Much appreciated.

compound	assigned_label
O=C([O-])CN1CCNCCN(CC(=O)[O-])CCNCC1.[68Ga+3] [^68Ga-DO2A, reference compound]	label 1
NC(CNC(=O)CN1CCN(CC(=O)[O-])CCN(CC(=O)[O-])CCN(CC(=O)[O-])CC1)C(=O)O.[68Ga+3] (centres unmarked) [^68Ga-DOTA-ala]	label 1
O=C([O-])CN1CCNCCN(CC(=O)[O-])CCN(CC(=O)[O-])CC1.[68Ga+3] [^68Ga-DO3A, reference compound]	label 1
N[C@@H](CN1CCN(CC(=O)[O-])CCN(CC(=O)[O-])CCN(CC(=O)[O-])CC1)C(=O)O.[68Ga+3] (stereo in doubt) [^68Ga-DO3A-ala]	label 0
O=C([O-])CN1CCN(CC(=O)[O-])CCN(CC(=O)O)CCN(CC(=O)[O-])CC1.[68Ga+3] [^68Ga-DOTA, reference compound]	label 1
NC(CN1CCN(CC(=O)[O-])CCNCCN(CC(=O)[O-])CC1)C(=O)[O-].[68Ga+3] (centres unmarked) [^68Ga-DO2A-ala]	label 0
NC(CNC(=O)CN1CCN(CC(=O)[O-])CCN(CC(=O)[O-])CC1)C(=O)[O-].[68Ga+3] (centres unmarked) [^68Ga-NOTA-ala]	label 1
O=C([O-])CN1CCN(CC(=O)[O-])CCN(CC(=O)[O-])CC1.[68Ga+3] [^68Ga-NOTA, reference compound]	label 1

From: patent US20120029177A1
